molecular target: Voltage-gated inwardly rectifying potassium channel KCNH2 (Homo sapiens, UniProt Q12809); experiment: Displacement of [3H]dofetilide from human ERG expressed in HEK293 cells after 45 mins by scintillation counting method
Sequence (Q12809 whole entry): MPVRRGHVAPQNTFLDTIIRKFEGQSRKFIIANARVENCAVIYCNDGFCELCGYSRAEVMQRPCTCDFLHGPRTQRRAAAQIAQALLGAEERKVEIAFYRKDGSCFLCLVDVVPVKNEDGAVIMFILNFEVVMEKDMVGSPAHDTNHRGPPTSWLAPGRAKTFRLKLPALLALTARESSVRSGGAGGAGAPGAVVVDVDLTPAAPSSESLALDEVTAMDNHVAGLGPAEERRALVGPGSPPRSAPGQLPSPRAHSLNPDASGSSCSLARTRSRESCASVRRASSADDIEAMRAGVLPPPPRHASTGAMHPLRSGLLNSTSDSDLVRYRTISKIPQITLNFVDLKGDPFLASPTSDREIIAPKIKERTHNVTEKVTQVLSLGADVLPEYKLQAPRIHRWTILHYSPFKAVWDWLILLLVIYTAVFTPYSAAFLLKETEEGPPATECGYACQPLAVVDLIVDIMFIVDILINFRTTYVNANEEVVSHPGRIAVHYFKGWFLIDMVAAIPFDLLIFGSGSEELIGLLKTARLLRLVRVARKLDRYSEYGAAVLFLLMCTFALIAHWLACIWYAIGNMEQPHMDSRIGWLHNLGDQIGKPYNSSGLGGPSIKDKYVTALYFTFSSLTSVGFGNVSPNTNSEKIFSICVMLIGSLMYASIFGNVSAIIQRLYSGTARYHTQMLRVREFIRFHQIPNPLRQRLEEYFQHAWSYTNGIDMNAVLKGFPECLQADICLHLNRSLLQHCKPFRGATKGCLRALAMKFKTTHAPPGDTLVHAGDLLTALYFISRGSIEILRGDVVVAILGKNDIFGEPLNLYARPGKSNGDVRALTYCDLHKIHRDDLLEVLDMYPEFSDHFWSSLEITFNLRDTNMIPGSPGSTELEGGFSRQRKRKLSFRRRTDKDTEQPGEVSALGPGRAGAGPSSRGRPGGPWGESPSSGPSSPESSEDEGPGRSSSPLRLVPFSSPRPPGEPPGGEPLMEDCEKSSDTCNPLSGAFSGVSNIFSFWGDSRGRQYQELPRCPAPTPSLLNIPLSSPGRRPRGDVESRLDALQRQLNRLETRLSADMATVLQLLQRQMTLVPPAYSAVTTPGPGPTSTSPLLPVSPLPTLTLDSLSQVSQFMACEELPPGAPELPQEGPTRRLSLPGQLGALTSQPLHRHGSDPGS
Readout Kind: IC50 (nM)
Just the number please, in nM, no unit attached.

[ask] Give the reported value of IC50 for this record: `O=C(CCN1CCN(C(=O)OCc2cc(Cl)cc(Cl)c2)CC1)c1ccc2[nH]c(=O)oc2c1`
[reply] 2700

* * *

experiment: Intrinsic clearance in human liver microsomes at 1 uM by HPLC analysis; format: ADME, microsome; details: read-out: CLH
Readout Kind: microsomal CLint at 1 µM
Please provide the amount together with its unit, number first.

[ask] Give the reported value of microsomal CLint at 1 µM for this record: `O=C(CCCc1c[nH]nn1)NC1CCN(C(=O)OCc2cc(Cl)cc(Cl)c2)CC1`
[reply] 59 µL/min/mg
